Molecular target: Sentrin-specific protease 8 (Homo sapiens, UniProt Q96LD8)
Sequence (Q96LD8 whole entry): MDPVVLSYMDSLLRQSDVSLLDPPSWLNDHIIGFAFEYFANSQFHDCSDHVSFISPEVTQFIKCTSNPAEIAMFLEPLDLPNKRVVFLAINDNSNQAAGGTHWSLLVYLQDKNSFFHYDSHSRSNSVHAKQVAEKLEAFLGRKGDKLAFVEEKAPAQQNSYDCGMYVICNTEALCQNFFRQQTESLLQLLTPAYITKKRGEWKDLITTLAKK
Experiment: SENP8 protease inhibitors, SAR follow-up, biochemical, luminescence (AID 504501)
Format: functional
Active and inactive are the calls of the source. Rule as the data show it: actives have a measured IC50 and inactives only a lower limit.
Field 'call' accepts YES (active), NO (inactive)

Examples from the recorded data:
INSERT INTO measurements (entry_smiles, answer_label) VALUES
  ('COc1ccc(N/N=C/c2cn(Cc3ccccc3)c3ccccc23)cc1', 'NO'),
  ('O=C(O)c1ccc(OC2CSC2)cc1', 'YES'),
  ('Cc1cccc(-c2noc(/C=C/c3ccccc3)n2)c1', 'NO'),
  ('CCOC(=O)c1c(-c2ccc(Br)cc2)csc1NC(=O)C1CC1', 'NO'),
  ('Cc1ccc(S(=O)(=O)Nc2ccc3sc(NC(=O)c4ccccc4)nc3c2)cc1', 'NO');

Here's the next entry for you.
INPUT: What outcome does the record of this test show for CS(=O)(=O)c1ccc2nc(NC(=O)c3cccc(NS(=O)(=O)c4ccccc4)c3)sc2c1 ?
OUTPUT: NO
